assay: Dog PK study: zoledronic acid in serum after IV or oral capsule dosing, enteric or non-enteric coated, with or without excess coformer (LC/MS/MS); assay type: in vivo, Beagle dogs; settings: beagle, po, Leg 19, 61.3 mg with 322.9 mg DL-lysine monohydrate, gelatin capsule, PO, 0.25 h, read-out: Average serum concentration of 5 dogs
observed_property: concentration at 0.25 h (ng/mL)

O=P(O)(O)C(O)(Cn1ccnc1)P(=O)(O)O [Zoledronic acid]; 220

====

assay: Dog PK study: zoledronic acid in serum after IV or oral capsule dosing, enteric or non-enteric coated, with or without excess coformer (LC/MS/MS); format: in vivo, Beagle dogs; settings: beagle, iv, 0.05 mg/kg, zoledronic acid in dog serum, Leg 1, IV 0.05 mg/kg, saline solution, Time 2 hour, read-out: Average serum concentration of 5 dogs
observed_property: concentration at 2 hour (ng/mL)

O=P(O)(O)C(O)(Cn1ccnc1)P(=O)(O)O [Zoledronic acid]; 17.6

====

experiment: Dog PK study: zoledronic acid in serum after IV or oral capsule dosing, enteric or non-enteric coated, with or without excess coformer (LC/MS/MS); assay type: in vivo, Beagle dogs; settings: beagle, iv, 0.05 mg/kg, zoledronic acid in dog serum, Leg 1, IV 0.05 mg/kg, saline solution, Time 1 hour, read-out: Average serum concentration of 5 dogs
observed_property: concentration at 1 hour (ng/mL)

O=P(O)(O)C(O)(Cn1ccnc1)P(=O)(O)O; 56.1

====

Assay: Rat PK study: zoledronic acid in plasma after IV, oral gavage or intraduodenal dosing (LC/MS/MS)
Format: in vivo
Details: male, Sprague-Dawley, iv, 0.5 mg/kg, read-out: Average plasma concentration of 3 rats
Procedure: This can be attributed to the fact that both animals have historically been used in the safety evaluation and PK screening studies and are recommended by appropriate regulatory agencies. […] The dose of each rat was calculated on a per rat basis (not on an average weight of all the rats in the lot). • ii. […] The dose of each rat was calculated on a per rat basis (not on an average weight of all the rats in the lot). […]
observed_property: concentration at 24 hour (ng/mL)

O=P(O)(O)C(O)(Cn1ccnc1)P(=O)(O)O; 2.98

====

experiment: Rat PK study: zoledronic acid in plasma after IV, oral gavage or intraduodenal dosing (LC/MS/MS); type: in vivo; conditions: male, Sprague-Dawley, other: intraduodenal (ID, duodenal cannula), 5 mg/kg, read-out: Average plasma concentration of 3 rats
observed_property: concentration at 4 hour (ng/mL)

O=P(O)(O)C(O)(Cn1ccnc1)P(=O)(O)O [Zoledronic acid]; 3.85

====

experiment: Dog PK study: zoledronic acid in serum after IV or oral capsule dosing, enteric or non-enteric coated, with or without excess coformer (LC/MS/MS); type: in vivo, Beagle dogs; conditions: beagle, po, Leg 24, 64.0 mg with 374.8 mg L-lysine HCl, gelatin capsule, PO, 8 h, read-out: Average serum concentration of 5 dogs
observed_property: concentration at 8 h

O=P(O)(O)C(O)(Cn1ccnc1)P(=O)(O)O; 4.56 ng/mL

====

test: Dog PK study: zoledronic acid in serum after IV or oral capsule dosing, enteric or non-enteric coated, with or without excess coformer (LC/MS/MS); assay type: in vivo, Beagle dogs; details: beagle, po, Leg 24, 64.0 mg with 374.8 mg L-lysine HCl, gelatin capsule, PO, 0.75 h, read-out: Average serum concentration of 5 dogs
observed_property: concentration at 0.75 h (ng/mL)

O=P(O)(O)C(O)(Cn1ccnc1)P(=O)(O)O; 340
